Origin of measurements: ChEMBL document CHEMBL1140894

Entries below carry reported Ki on Transient receptor potential cation channel subfamily V member 1 (Rattus norvegicus).
Sequence (O35433 whole entry): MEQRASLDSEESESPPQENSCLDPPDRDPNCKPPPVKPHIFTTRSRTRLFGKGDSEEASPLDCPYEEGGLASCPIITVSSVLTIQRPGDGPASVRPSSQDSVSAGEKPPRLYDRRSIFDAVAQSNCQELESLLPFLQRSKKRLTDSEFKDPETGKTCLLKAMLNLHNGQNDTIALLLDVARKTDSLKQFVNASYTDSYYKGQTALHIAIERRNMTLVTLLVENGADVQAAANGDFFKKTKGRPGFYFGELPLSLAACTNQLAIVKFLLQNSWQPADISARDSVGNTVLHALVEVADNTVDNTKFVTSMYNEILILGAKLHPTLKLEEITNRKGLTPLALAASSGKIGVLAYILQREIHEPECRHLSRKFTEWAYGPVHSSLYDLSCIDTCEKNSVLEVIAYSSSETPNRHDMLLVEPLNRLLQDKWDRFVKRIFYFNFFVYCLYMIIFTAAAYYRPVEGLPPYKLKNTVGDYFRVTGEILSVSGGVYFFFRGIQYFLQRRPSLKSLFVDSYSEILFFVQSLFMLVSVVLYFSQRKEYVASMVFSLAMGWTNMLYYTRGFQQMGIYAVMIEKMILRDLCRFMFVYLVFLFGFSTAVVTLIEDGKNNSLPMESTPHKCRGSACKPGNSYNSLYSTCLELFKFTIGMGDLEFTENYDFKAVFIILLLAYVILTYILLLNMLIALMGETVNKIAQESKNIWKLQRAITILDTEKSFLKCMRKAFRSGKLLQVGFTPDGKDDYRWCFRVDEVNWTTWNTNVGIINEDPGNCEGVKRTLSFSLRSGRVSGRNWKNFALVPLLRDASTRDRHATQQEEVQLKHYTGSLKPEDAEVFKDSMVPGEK
Numeric only. Scale: nM

{"columns": ["Given smiles", "Ki (nM)"],
 "data": [
  ["C=C(C)[C@]12C[C@@H](C)[C@@]34O[C@](Cc5ccccc5)(O[C@@H]1[C@@H]3C=C(COC(=O)Cc1ccc(O)c(OC)c1)C[C@]1(O)C(=O)C(C)=C[C@@H]41)O2", 0.0426],
  ["C=C(C)[C@@]12C[C@@H](C)[C@@]34OC(Cc5ccccc5)(O[C@@H]1[C@@H]3C=C(COC(=O)Cc1ccc(NS(C)(=O)=O)cc1)C[C@]1(O)C(=O)C(C)=C[C@@H]41)O2", 6.81]
]}

Field: next compound
query: Query: Ki; subject: C=C(C)[C@@]12C[C@@H](C)[C@@]34OC(Cc5ccccc5)(O[C@@H]1[C@@H]3C=C(COC(=O)Cc1cccc(F)c1F)C[C@]1(O)C(=O)C(C)=C[C@@H]41)O2
result: 3.53

* * *

- Target: Transient receptor potential cation channel subfamily V member 1 (Rattus norvegicus)
- Measurement description: Agonist activity at rat TRPV1 receptor expressed in CHO cells assessed as calcium uptake
EC50 less than 6 nM is criterion met; EC50 greater than or equal to 6 nM is criterion not met.

query: Does this molecule meet the criterion EC50 < 6 nM? C=C(C)[C@@]12C[C@@H](C)[C@@]34OC(Cc5ccccc5)(O[C@@H]1[C@@H]3C=C(COC(=O)Cc1cccc(F)c1F)C[C@]1(O)C(=O)C(C)=C[C@@H]41)O2
result: criterion not met

query: Next up: C=C(C)[C@@]12C[C@@H](C)[C@@]34OC(Cc5ccccc5)(O[C@@H]1[C@@H]3C=C(COC(=O)Cc1cc(F)ccc1F)C[C@]1(O)C(=O)C(C)=C[C@@H]41)O2
result: criterion met

query: Next up: C=C(C)[C@]12C[C@@H](C)[C@@]34O[C@](Cc5ccccc5)(O[C@@H]1[C@@H]3C=C(COC(=O)Cc1ccc(O)c(OC)c1)C[C@]1(O)C(=O)C(C)=C[C@@H]41)O2
result: criterion met

* * *

- Target: Transient receptor potential cation channel subfamily V member 1 (Rattus norvegicus)
Measured Ki of individual entries
Numeric only. Scale: nM

Guide cases for Ki, answers given:
{"columns": ["Given smiles", "Target", "Ki (nM)"],
 "data": [
  ["C=C(C)[C@@]12C[C@@H](C)[C@@]34OC(Cc5ccccc5)(O[C@@H]1[C@@H]3C=C(COC(=O)Cc1ccc(NS(C)(=O)=O)c(OC)c1)C[C@]1(O)C(=O)C(C)=C[C@@H]41)O2", "Transient receptor potential cation channel subfamily V member 1 (Rattus norvegicus)", 0.228],
  ["C=C(C)[C@@]12C[C@@H](C)[C@@]34OC(Cc5ccccc5)(O[C@@H]1[C@@H]3C=C(COC(=O)Cc1c(F)c(F)c(F)c(F)c1F)C[C@]1(O)C(=O)C(C)=C[C@@H]41)O2", "Transient receptor potential cation channel subfamily V member 1 (Rattus norvegicus)", 135],
  ["C=C(C)[C@@]12C[C@@H](C)[C@@]34OC(Cc5ccccc5)(O[C@@H]1[C@@H]3C=C(COC(=O)Cc1cc(F)ccc1F)C[C@]1(O)C(=O)C(C)=C[C@@H]41)O2", "Transient receptor potential cation channel subfamily V member 1 (Rattus norvegicus)", 0.4]
]}

Field: next compound
query: Query: Ki; subject: C=C(C)[C@@]12C[C@@H](C)[C@@]34OC(Cc5ccccc5)(O[C@@H]1[C@@H]3C=C(COC(=O)Cc1ccc(F)cc1F)C[C@]1(O)C(=O)C(C)=C[C@@H]41)O2
result: 0.89

* * *

- Target: Transient receptor potential cation channel subfamily V member 1 (Rattus norvegicus)
- Measurement description: Agonist activity at rat TRPV1 receptor expressed in CHO cells assessed as calcium uptake
Property: pEC50
Remember, pEC50 is on a log scale: it is -log10 of the molar concentration.

Guide cases for pEC50, answers given:
{"columns": ["Given smiles", "Property", "Readout value"],
 "data": [
  ["C=C(C)[C@@]12C[C@@H](C)[C@@]34OC(Cc5ccccc5)(O[C@@H]1[C@@H]3C=C(COC(=O)Cc1ccc(F)cc1)C[C@]1(O)C(=O)C(C)=C[C@@H]41)O2", "pEC50", 8.41],
  ["C=C(C)[C@@]12C[C@@H](C)[C@@]34OC(Cc5ccccc5)(O[C@@H]1[C@@H]3C=C(COC(=O)Cc1c(F)cccc1F)C[C@]1(O)C(=O)C(C)=C[C@@H]41)O2", "pEC50", 7.95],
  ["C=C(C)[C@@]12C[C@@H](C)[C@@]34OC(Cc5ccccc5)(O[C@@H]1[C@@H]3C=C(COC(=O)Cc1ccc(F)c(F)c1)C[C@]1(O)C(=O)C(C)=C[C@@H]41)O2", "pEC50", 8.26]
]}

query: Query: pEC50; subject: C=C(C)[C@@]12C[C@@H](C)[C@@]34OC(Cc5ccccc5)(O[C@@H]1[C@@H]3C=C(COC(=O)Cc1ccc(F)cc1F)C[C@]1(O)C(=O)C(C)=C[C@@H]41)O2
result: 8.74

query: Next up: C=C(C)[C@@]12C[C@@H](C)[C@@]34OC(Cc5ccccc5)(O[C@@H]1[C@@H]3C=C(COC(=O)Cc1cc(F)cc(F)c1)C[C@]1(O)C(=O)C(C)=C[C@@H]41)O2
result: 7.23

query: Next up: C=C(C)[C@@]12C[C@@H](C)[C@@]34OC(Cc5ccccc5)(O[C@@H]1[C@@H]3C=C(COC(=O)Cc1cccc(F)c1)C[C@]1(O)C(=O)C(C)=C[C@@H]41)O2
result: 8.72

query: Next up: C=C(C)[C@@]12C[C@@H](C)[C@@]34OC(Cc5ccccc5)(O[C@@H]1[C@@H]3C=C(COC(=O)Cc1ccc(NS(C)(=O)=O)cc1)C[C@]1(O)C(=O)C(C)=C[C@@H]41)O2
result: 8.75

query: Next up: C=C(C)[C@@]12C[C@@H](C)[C@@]34OC(Cc5ccccc5)(O[C@@H]1[C@@H]3C=C(COC(=O)Cc1ccc(NS(C)(=O)=O)c(OC)c1)C[C@]1(O)C(=O)C(C)=C[C@@H]41)O2
result: 9.97
